Just for reference, PubChem BioAssay is where these values come from.

# protocol.details: probe aDKK1 binding to arrayed compounds – biochemical, biotinylated probe, 635/667 nm fluorescence, primary screen (AID 1099);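 further: score merges 667nm spot fluorescence with signal to noise across triplicate slides; reference of the scale not given here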
# experimental.setup: small-molecule microarray, higher = more signal
reported.endpoint: composite z-score
Answer with a number only.

[
  {
    "molecule": "COCCOC(=O)N1C(=O)[C@@]2(c3cc(C#CCC(C(=O)OC)C(=O)OC)ccc31)[C@H](c1ccc(O)cc1)N1[C@H](c3ccccc3)[C@H](c3ccccc3)OC(=O)[C@H]1[C@@H]2C(=O)Nc1nc2ccccc2s1",
    "recorded.result": 0.595
  },
  {
    "molecule": "C=C(COC)C(=O)CC[C@H](OC(=O)c1cccnc1)c1ccc(OCCO)cc1",
    "recorded.result": -0.163
  }
]

For the next question, use this molecule.
Task item: State the recorded composite z-score for this entry: CN1C(=O)C2C(C3CC3)C=C3CN(Cc4cccc(Cl)c4)[C@@H]([C@@H](O)Cc4ccccc4)C3C2C1=O (stereo partly drawn)
Reply: -0.217
